Values from PubChem BioAssay

// values below are reported composite z-score
- assay.method.text: small-molecule microarray binders of probe aNog, primary screen, biochemical, biotinylated probe, 635/667 nm fluorescence (AID 1115);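 note: probe is biotinylated aNog protein used at 0.15 µg/mL for 1 h at 4 C; z-score combines 667 nm fluorescence of each spot with its signal to noise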
- experimental.context: higher = more signal
readout.label: composite z-score

molecule="C=CC(COC(C)=O)NS(=O)(=O)c1ccc(Br)cc1 (centres undefined)" assay_value=-0.149
molecule=COCCOC(=O)N1C(=O)[C@@]2(c3cc(C#CCNC(N)=O)ccc31)[C@H](C(=O)N1CCN(c3ncccn3)CC1)[C@H]1C(=O)O[C@H](c3ccccc3)[C@H](c3ccccc3)N1[C@@H]2c1ccccc1OCCO assay_value=-0.319
molecule=CC(C)CNC(=O)[C@@H]1c2ccccc2C(=O)N(Cc2cc(C(F)(F)F)cc(C(F)(F)F)c2)[C@H]1c1ccc(CO)cc1 assay_value=-0.247
molecule="COC(=O)C1=CC(CCCO)=CC(C2CC2)N(Cc2sc3ccccc3c2Cl)C=C1C(=O)OC (centres undefined)" assay_value=0.838
molecule="CCOC(=O)C1=CCC(c2ccc(C#N)cc2)N(S(=O)(=O)c2ccc(C)cc2)C1 (centres undefined)" assay_value=-0.557
molecule="CCOC(=O)[C@H]1C[C@H]2O[C@@]23C[C@H]1C(=O)N1CCCC1[C@@H]3O[Si](C)(C)C(C)(C)C (some centres undefined)" assay_value=-0.202
molecule=CCOC(=O)C[C@H]1[C@H](OC(=O)Cc2ccc3c(c2)OCO3)[C@@H](NC(=O)C2CCCCC2)c2cc(OCCCO)ccc2N1C(=O)Cc1ccc(OC)cc1 assay_value=-0.543
molecule=[N-]=[N+]=NCc1ccccc1C[C@]1(C(=O)O)N=C(c2ccc(OCCCO)cc2)O[C@H]1c1ccccc1 assay_value=1.29
molecule=CCOC(=O)[C@H]1C/C=C/C[C@H](C(=O)OCC)C(=O)O[C@H]2[C@@H](OC)O[C@H](CO)[C@@H](OC(=O)Nc3ccc4c(c3)OCO4)[C@@H]2OC1=O assay_value=0.122
molecule=COCC(=C=CC[C@H](O)c1ccc(OCCO)cc1)C[C@H](O)c1cc(Cl)cc(Cl)c1O assay_value=0.277
molecule=COC(=O)[C@@]1(Cc2ccccc2)[C@H]2c3cc(C(=O)N4CCCC4)n(Cc4ccc(C)o4)c3C[C@H]2CN1C(=O)c1ccccc1 assay_value=-0.153
molecule=O=C1O[C@H](c2ccccc2)[C@H](c2ccccc2)N2[C@H]1[C@@H](C(=O)O)[C@]1(C(=O)Nc3ccc(C#CC4(O)CCCCCC4)cc31)[C@H]2c1ccc(OCCO)cc1 assay_value=0.0028
molecule=CC1=C2[C@@H](CCc3ccccc3)OB(O)C[C@@H]2n2c(=O)n(-c3ccccc3)c(=O)n2C1 assay_value=-0.198
molecule=O=C1O[C@H](c2ccccc2)[C@H](c2ccccc2)N2[C@H]1[C@@H](C(=O)N1CCN(c3ncccn3)CC1)[C@]1(C(=O)Nc3ccccc31)[C@H]2c1ccc(OCCO)cc1 assay_value=-0.0464
